Each recorded value in this set is attributed to patent US20250243292A1.

# test-target: T1, CD24-GST fusion protein
# T1 chain: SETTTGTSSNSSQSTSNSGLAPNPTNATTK
# test-method-notes: competitive ELISA
property: IC50 (µg/mL)

[[record]]
binder = "PP6368 (antibody, V domains shown) VH: EVKFEESGGGLVQPGGSIKLSCAASGVTFSEAWMDWVRQSPEKGLEWVAEIRDKPNSYVTYYAESVKGRFTISRDDSKSRVYLQMNNLRTEDTGIYYCTGAMDYWGQGTSVTVSS VL: DIVMTQTPLSLSVTIGQPASISCKSSQSLLYSNGKTYLNWLQQRPGQSPKRLIYQVSKLDPGIPDRFSGSGSETDFTLKISRVEAEDLGIYYCMQGTYLPWTFGGGTKLEIKR"
number = 0.0299

[[record]]
binder = "PP6226 (antibody, V domains shown) VH: EVKFEESGGGLVQPGGSIKLSCAASGVTFSEAWMDWVRQSPEKGLEWVAEIRDKTKNYVTYYAESVKGRFTISRDDSKSRVYLQMNNLRTEDTGIYYCTGAMDYWGQGTSVTVSS VL: DIVMTQTPLSLSVTIGQPASISCKSSQSLLYSNGKTYLNWLQQRPGQSPKRLIYQVSKLDPGIPDRFSGSGSETDFTLKISRVEAEDLGIYYCLQGTSYPWTFGGGTKLEIKR"
number = 0.0856

[[record]]
binder = "PP6370 (antibody, V domains shown) VH: EVKFEESGGGLVQPGGSIKLSCAASGVTFSEAWMDWVRQSPEKGLEWVAEIRDKTKNYVTYYAESVKGRFTISRDDSKGRVYLQMNNLRTEDTGIYYCTGAMDYWGQGTSVTVSS VL: DIVMTQTPLSLSVTIGQPASISCKSSQSLLYSNGKTYLNWLQQRPGQSPKRLIYQVSKLDPGIPDRFSGSGSETDFTLKISRVEAEDLGIYYCMQGTYLPWTFGGGTKLEIKR"
number = 0.0642

[[record]]
binder = "PP6235 (antibody, V domains shown) VH: EVKFEESGGGLVQPGGSIKLSCAASGVAFSGAWMDWVRQSPEKGLEWVAEIRDKTKNYVTYYAESVKGRFTISRDDSKSRVYLQMNNLRTEDTGVYYCTGAMDYWGQGTSVTVSS VL: DIVMTQTPLSLSVTIGQPASISCKSSQSLLYSNGKTYLNWLQQRPGQSPKRLIYQVSKLDPGIPDRFSGSGSETDFTLKISRVEAEDLGIYYCMQGASLPWTFGGGTKLEIKR"
number = 0.0419

[[record]]
binder = "PP6369 (antibody, V domains shown) VH: EVKFEESGGGLVQPGGSIKLSCAASGVPFSGAWMDWVRQSPEKGLEWVAEIRDKTKNYVTYYAESVKGRFTISRDDSKSRVYLQMNNLRTEDTGIYYCTGAMDYWGQGTSVTVSS VL: DIVMTQTPLSLSVTIGQPASISCKSSQSLLYSNGKTYLNWLQQRPGQSPKRLIYQVSKLDPGIPDRFSGSGSETDFTLKISRVEAEDLGIYYCMQGTYLPWTFGGGTKLEIKR"
number = 0.0611

